Test: Plasma levels of tamoxifen and metabolites after intraductal injection of tamoxifen formulations (LC-MS)
Type: in vivo
Conditions: Tamoxifen in plasma
value.type: Tmax
The number alone won't do; follow it with the unit.

Name the recorded Tmax for CC/C(=C(\c1ccccc1)c1ccc(OCCN(C)C)cc1)c1ccccc1 [Free TMX, tamoxifen] .
18 min

---

Assay: Breast (mammary gland) concentration of tamoxifen and 4-hydroxytamoxifen after intraductal injection
Assay type: in vivo
Details: breast (mammary gland), tamoxifen in breast
Experimental: For In vivo studies, the levels of Tamoxifen and two major metabolites 4-hydroxytamoxifen (4HT) and endoxifen (EDX) were measured using LC-MS. (Liquid chromatography-Mass spectroscopy) The mammary gland and all the other vital organs (liver, spleen, kidney, lungs, heart, and uterus) were weighed and washed with PBS to remove blood. […] The supernatant was gently removed and 15 μl was injected into LC-MS for quantification.
value.type: half-life (min)
Just the number in min, nothing appended.

Name the recorded half-life for CC/C(=C(\c1ccccc1)c1ccc(OCCN(C)C)cc1)c1ccccc1 [Free TMX, tamoxifen] .
892
